Assay: folding stability dG unfold (combined trypsin and chymotrypsin); higher = more stable
Lab note: compare folding stability dG unfold against 1 kcal/mol. Equal or greater, write Yes. Smaller, write No.

SAGGSAGGSASTTVTYVEIKVTNPNPPGTPVAEYLIPLSEITEEMIEKLEKEGGLKVEVTVVLSAGGSAGGS [r12_398_JUSTAS]    Yes
SAGGSAGGSAGGKVSEIDLSGDKVVVTVKGPGGSVVREVHPDKTLEQVLDELLENPELVDSAGGSAGGSAGG [r7_373_TrMRF]    Yes
SAGGMTITFTLEFDLEDDRRITVTATIDPTGDDVLITVRVELTLPNGEKLEFTATIVLPPGAHPDELISAGG [r13_3_TrMRF]    Yes
SAGGALAVKVEFDEEIPTATITYRAPVPGEGGAVDVPADEVAAAIAKALGLPDLEEVTVNVPAPDAPLSAGG [r13_327_JUSTAS]    No
SAGGRIVEAAKEAGLDGVDLKEIRPLPDGGVEIRILPPPGMPEEAAAEAAERIERALREEFPDTRIDTESAG [r5_101_TrMRF]    No
SMTVVIDIPPEVPVPGSGSVRPVPVEEVLKRVEEAMAKGKKVVVTGRDPKHPLVQEVAARLEELGVEVVGSA [r9_468_JUSTAS]    No
SAGGVEEAREALEEAGFEIVDVDEETGTVTVRNEETEETITVRVEAPAPPPVEVEEEVEVEEEEEEESAGGS [r16_197_TrROS_Hall]    Yes
SYSTSTVTVPVAADEIDKAKEIAKELAEKLPPNSRVTFNMPAPDGSTFTVEVTVNPDGTITVTVSDSLPAVS [r1_350_JUSTAS]    Yes
SAGKVTVERDPSTNVVNVTVEVERERDVPPGAPVTETIIIPARVKFDEDGKLVEPISLDDILAAIRAAGSAG [r5_239_TrMRF]    No
SAGGMTPEEARKLAEELAKKLEEEGKEVEVKVEVNKDGKVVKIEIKPEGEKVTITLPDGEKVLELELPSAGG [r13_693_TrROS_Hall]    Yes
SAGGGSMTTVRLTREINLPSSVSDEEIIEEIKEELPENYEILEVKIEKDPKTGKYYIEAEVKIPKLGSAGGS [r16_396_JUSTAS]    Yes
SAGGMTLEELKAKITKVEVEEREDGSLKLRLTIKVKNEDGSEEEIELTITLPEEEKNMSLEELLEKLLSAGG [r13_319_TrROS_Hall]    Yes
SAGGEVKVVKAEVTTLPDGRKLVRLLLEVGGKFYPVLIDVHPDGVRITFPDGKTATIKLEDLKNLTWSAGGS [r16_593_TrMRF]    Yes
SAWIPAKEIAKYLAKELQEKMPHPGMKIPVDVETNPEENYVRVDIDIEHPGDGGKWKFEIYIPPGDTIVSAG [r14_849_TrROS]    Yes
SAGMTVEELKAQPKNATVTSVSRDPSTGLYTVTIERPDSNGKWVTHTLTLTGPEAVAAAVAAGLPSLAASAG [r5_905_JUSTAS]    Yes
SAGGSAGGSAKKKKKKFKIVKIEIEVEVVKDKKTNKYYVKVKIKIYLKGNKKEFEMEFVFPSAGGSAGGSAG [r3_424_TrROS_Hall]    Yes
MTPEERIEEIEAKARELLRELGLPPEVRLTVEAEVRPRPDGRLELRVRVTVEFPGPPGAIPPELLEALAEES [r1_98_TrMRF]    Yes
SAGGSAGGSAGGPPNKKFILRIEHPGRPITFPFKSPKGLDEAADKFPDKFGMPPKIEVHPSAGGSAGGSAGG [r7_18_TrROS]    No
SAGGSAGGSMTVKKIEIKPPPGGTDLATITTEKVDPSTGKPSLSTSTVTVPKNNPEAIEKFLSSAGGSAGGS [r12_691_JUSTAS]    No
SAGGSAGGSDMVLVTAPVDIPPNVKVEIKLKDGYETVSYDPESGRLVILVPANKLDEVLEAIKSAGGSAGGS [r12_476_TrMRF]    Yes
SAGGSAGGSAGGMREVIRRPEASGEVTVEPLPEDERRPVDFGSDGVVLWREGDEVVVEPSAGGSAGGSAGGS [r10_817_JUSTAS]    No
SAGGSAGGSAGGIGPEIVEAALIEAKEKVPEDEEVEILVRDPVTGEVLRLRIYPDRVELGSAGGSAGGSAGG [r7_44_TrMRF]    No
SAGGSAGGSAVVALTPDGALAVWFPEKGVVVVYNPATGTYTVLTVDADNTVTLEDVPPNTDVFSAGGSAGGS [r12_997_TrMRF]    Yes
SAGGSAGGSDVSEEELRAIAEEIAAELGLSDITVEVEKLPTAVVRITITNPATGETIEIEVPESAGGSAGGS [r12_1000_JUSTAS]    Yes
SAGAHTVSVHYVEPGSKKLSSVETSEITLEPGEELPLDEVAARFPSENYEVTAQEEPDAITITIYVYRGSAG [r5_269_JUSTAS]    No
SAGGSAPKTVTFTTPKGYPITVTPGDRTVTLTHPDRPLATFDVPPDVPTFTITLPDGDTATITVDDSAGGSA [r2_385_TrMRF]    No

----------
Each record here notes measured folding stability dG unfold.
Assay: folding stability dG unfold (combined trypsin and chymotrypsin); higher = more stable
Recorded Endpoint: folding stability dG unfold (kcal/mol)

SAGGSAGGSAGGSMTVTETRYVGTDPATGVATTLSTYRDASGTPGLVTTYPGGAVTVALSAGGSAGGSAGGS [r4_35_JUSTAS]    -0.312
SMLNIPSDWKVITIKLEYKVEPGVSEEEVKEKAIEELKKKFPKNTKIEVEVTPDPETGTVTIKITIIIKKSA [r9_657_JUSTAS]    1.84
SAGGSAGGSAGMVIELPDGRKAIIVKYDKETKRFYVEIVDKKTGEKKIYEFKSLEEALKASAGGSAGGSAGG [r17_300_TrROS_Hall]    2.79
SAGGNINDIAKKLGLPPGGMIMIKDFSLEWHRMPMRVPEEDNDKPKEEKEVPMPMYKAEIKISLFPADSAGG [r13_482_TrROS]    1.52

----------
Assay: folding stability dG unfold (combined trypsin and chymotrypsin); higher = more stable
Recorded Endpoint: folding stability dG unfold (kcal/mol)

SAGGSAGGSASVTVSPTPDDTWRVEVTETRYFFDPDGRPIGPVTITSSRVVSSEEEAAALLSAGGSAGGSAG [r3_232_JUSTAS]    0.49
SAGGSAGGSKKPKAKIKKIEFFPEGNKIVALVEFPDKVIKEIVFENLPPEEAIKKALEFAKKGSAGGSAGGS [r20_181_TrMRF]    1.31
SAGAVSTFENSNPSISLEELKEKIEEKLGIELVELKKVEDVPGGLKYEIVVPKIKGEKPFSAEEIAKLLSAG [r5_550_JUSTAS]    -0.434
SAGGMMIVIRIPNKPVEFEINGWKIEYNPDEGTIIIPFPPEMLDQLEKLPGLEGIKDIEIIPPGELKSAGGS [r8_493_TrROS]    2.12
SAGGSMTVVIVKLRPPDSPEVLYLPFRGRLPNGDWVPISLEELLEALEALPDLEVEEIIVAPPEEISAGGSA [r2_192_TrMRF]    1.7
SAGGGKKTKYVLLTFNPKEVKAEDLEKEILKKGAEIYIGDKPIDPGKGVKEVMKANPNTTFLVKIYDSAGGS [r8_38_TrMRF]    1.12
SAMYKIRLKNGEEIELEGMSIEELEKLFPDVELEIEKVEKVPVVKAPSKEEAEELAKKLPPGAKIIVEDSAG [r14_445_TrROS_Hall]    0.324
SAGGSAGGMFVPEGKTVTVKLPGNETVTVKVKAGNSRPFDSLEEIEAFAAQPGFDIEVSSSPAKSAGGSAGG [r6_433_JUSTAS]    -0.722
SAGGEELIKELLDKLPPDVKEATIEIEVDGKKVTLTVNEDGEVTLEVIDPETKEKKTFKIKNGKIEPVSAGG [r13_803_TrROS_Hall]    2.97
SEEEIVEEPPPETRTLTLELVDPETGELVATITVSPDGTVTLTVRTPDGEEKTITVPEGMSLEEALAAALSA [r9_346_TrROS_Hall]    4.18
SAGGSAGGSAKEIKLKITKVTFTENEDGTLTATFELEDGYRVTIKFNKKTNKVEIKIEPLPSAGGSAGGSAG [r3_438_TrROS_Hall]    3.74
SAGGSAGGSSYLVEVISRKKVKVGGKERYVVPVRIPDNGELVELVVSEDVAKNIKPGDVVVLSSAGGSAGGS [r12_382_TrMRF]    0.0239
SAGGSAGGSAGGPEVTITLPPPEKVKVEIVEIEVEGGKVRIRVRNENGEELTFTVPLEDLSAGGSAGGSAGG [r7_829_TrROS_Hall]    1.51
SSVTIPFKITDPNTTIAEIAERVRELLPESLGELSVTVTFSDGTTLNVTPGENLSKYYSPDDELTITVDAPS [r1_56_JUSTAS]    1.27
SAGGMPVTVTIVVPPGTERELAEELAEKYAKEGADVEFEERPGGLVLTMTLPGGEVVTMEIRDPAQASAGGS [r16_406_JUSTAS]    2.34
SAMKIIIKLPKNVKPIKAEELEKIPGIKVVKIEIYKGEDGVYYLLIEIEESIPPEKLKELEEKIREIAGSAG [r14_421_TrMRF]    5.81
SKKVKEITIEGAPPGAKVTITVEEKGDKLIVRVEVERNGKTETFEVEMTLDELKALLDAGYTIRITEVIPSA [r9_1021_TrROS_Hall]    1.99
SAGMKIRILILGKGDPAQVEALAKELEAKLKEELGTEDVEVETLPASLTEEAAEERAKEEKVDIVVYESAGG [r19_89_JUSTAS]    0.99
SAGGERLTLEELEELLKNLPPGVEEVTITLKLEVEVRTEVRLNEDGSLETRTETRVTTELTLTLPKESAGGS [r16_708_TrROS_Hall]    3.46
SAGGSAGGSAGMNITITFPDGTVVEIPDVPPEYADVTPEKLKEEVLKKYPNVNVKVSPNGSAGGSAGGSAGG [r17_42_JUSTAS]    0.101
SAGGTLRNMPVEQIAKRLQNHGYEIKVENIRHNEDRVRIKIEVERRNKNGKPHEEVKISIEIPDPDDFSAGG [r13_566_TrROS]    0.559
SAGGSAESIPVDELVELAKKLGLDVTVTPLPETGLVRVEITFTTPDGSKVPATVLVHPDGRTTVFPSAGGSA [r15_1051_TrMRF]    2.08
